Reported pIC50 is given for each of the following compounds.
target: NRAS G12C (Homo sapiens, UniProt P01111+P62937, G12C)
Sequence (P01111 whole entry G12C, one chain of several): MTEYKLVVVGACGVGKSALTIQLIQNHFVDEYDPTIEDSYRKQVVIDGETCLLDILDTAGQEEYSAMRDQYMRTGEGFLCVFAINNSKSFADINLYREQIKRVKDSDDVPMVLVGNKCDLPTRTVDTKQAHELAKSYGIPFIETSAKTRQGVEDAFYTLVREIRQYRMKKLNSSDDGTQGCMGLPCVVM
assay: Disruption of BRAF RBD interaction with Ras (FRET / MOA assay, with Cyclophilin A)
Assay type: biochemical
run.conditions: NRAS G12C; read-out: NRAS G12C FRET data IC50
pIC50: −log10 of the molar value.

>  <molecular.string>
CCn1c(-c2cccnc2[C@H](C)OC)c2c3cc(ccc31)N1CCC[C@@H](C[C@H](NC(=O)[C@H](C(C)C)N(C)C(=O)C3(F)CCN(C(=O)C#CC(C)(C)N(C)C)CC3)C(=O)N3CCCC(N3)C(=O)OCC(C)(C)C2)C1

>  <measured.metric>
pIC50

>  <observed.measurement>
> 8.00

$$$$

Next up:
## Task Recorded pIC50 for `C=CC(=O)N1CC[C@H](C(=O)N(C)[C@H](C(=O)N[C@H]2CCC(=O)N(C)Cc3ccc4c(c3)c(c(-c3cccnc3[C@H](C)OC)n4CC)CC(C)(C)COC(=O)[C@@H]3CCCN(N3)C2=O)C(C)C)C1` , please?
## Result < 5.00

###

target: KRAS G12C (Homo sapiens, UniProt P01116+P62937, G12C)
Sequence (P01116 1-169 isoform P01116-2 G12C, one chain of several): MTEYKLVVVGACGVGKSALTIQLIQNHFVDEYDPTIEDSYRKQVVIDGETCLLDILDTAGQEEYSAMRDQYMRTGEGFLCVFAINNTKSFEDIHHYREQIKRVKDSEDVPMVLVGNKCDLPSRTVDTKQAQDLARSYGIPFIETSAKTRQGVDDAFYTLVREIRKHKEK
assay: Disruption of BRAF RBD interaction with Ras (FRET / MOA assay, with Cyclophilin A)
Type: biochemical
run.conditions: read-out: KRAS G12C FRET data, IC50
Text: This protocol may also be executed substituting other Ras proteins or nucleotides. The purpose of this biochemical assay was to measure the ability of test compounds to facilitate ternary complex formation between a nucleotide-loaded K-Ras isoform and Cyclophilin A; the resulting ternary complex disrupts binding to a BRAF^RBD construct, inhibiting K-Ras signaling through a RAF effector. Data is reported as IC50 values. […]
measured.metric: IC50

Below are worked cases with known answers.
>  <compound>
CCn1c(-c2cccnc2[C@H](C)OC)c2c3cc(ccc31)-c1cc(O)cc(c1)C[C@H](NC(=O)[C@H](C(C)C)N(C)C(=O)C1CC3CC1CN3)C(=O)N1CCC[C@H](N1)C(=O)OCC(C)(C)C2 (stereo partly drawn) [Example A133]

>  <IC50>
100 to 1000 nM

$$$$
>  <compound>
CCn1c(-c2cccnc2[C@H](C)OC)c2c3cc(ccc31)-c1csc(n1)C[C@H](NC(=O)C1CCC1)C(=O)N1CCC[C@H](N1)C(=O)OCC(C)(C)C2 [Example A369]

>  <IC50>
100 to 1000 nM

$$$$
>  <compound>
CCn1c(-c2cccnc2[C@H](C)OC)c2c3cc(ccc31)-c1csc(n1)C[C@H](NC(=O)[C@H](C(C)C)N(C)C(=O)N1CC3(CC(N(C)CCO)C3)C1)C(=O)N1CCC[C@H](N1)C(=O)OCC(C)(C)C2 (atropisomer, axis not shown) [Example A467]

>  <IC50>
10 to 100 nM

$$$$
>  <compound>
CCn1c(-c2cccnc2[C@H](C)OC)c2c3cc(ccc31)-c1csc(n1)C[C@H](NC(=O)[C@H](C(C)C)N(C)C(=O)N1CC3CCN(C)CC31)C(=O)N1CCC[C@H](N1)C(=O)OCC(C)(C)C2 (stereo partly drawn) [Example A539]

>  <IC50>
1000 to 10000 nM

$$$$
>  <compound>
CCn1c(-c2cccnc2[C@H](C)OC)c2c3cc(ccc31)-c1csc(n1)C[C@H](NC(=O)[C@H](C(C)C)N(C)C(=O)[C@@H]1CCN(C)[C@@H]1c1ccccc1)C(=O)N1CCC[C@H](N1)C(=O)OCC(C)(C)C2 [Example A464]

>  <IC50>
1000 to 10000 nM

$$$$
>  <compound>
CCn1c(-c2cccnc2COC)c2c3cc(ccc31)-c1cc(O)cc(c1)C[C@H](NC(=O)[C@H](C(C)C)N(C)C(=O)[C@H]1CCNC1)C(=O)N1CCC[C@H](N1)C(=O)OCC(C)(C)C2 [Example A32]

>  <IC50>
100 to 1000 nM

$$$$

## Task Recorded IC50 for CCn1c(-c2cccnc2[C@H](C)OC)c2c3cc(ccc31)-c1csc(n1)C[C@H](NC(=O)[C@H](C(C)C)N(C)C(=O)N1CC(N3CCCC3)C1)C(=O)N1CCC[C@H](N1)C(=O)OCC(C)(C)C2 [Example A329] , please?
## Result 100 to 1000 nM

## Task Recorded IC50 for CCn1c(-c2cc(N3CCN(C)CC3)cnc2[C@H](C)OC)c2c3cc(ccc31)-c1csc(n1)C[C@H](NC(=O)[C@H](C(C)C)N(C)C(=O)N1C[C@@H](C)N(C)C[C@H]1C)C(=O)N1CCC[C@H](N1)C(=O)OCC(C)(C)C2 (atropisomer, axis not shown) [Example A476] , please?
## Result 100 to 1000 nM

## Task Recorded IC50 for CCn1c(-c2cccnc2[C@H](C)OC)c2c3cc(ccc31)-c1cc(O)cc(c1)C[C@H](NC(=O)[C@H](C(C)C)N(C)C(=O)[C@H]1CCN(CCO)C1)C(=O)N1CCC[C@H](N1)C(=O)OCC(C)(C)C2 [Example A111] , please?
## Result 10 to 100 nM

###

target: KRAS G13D (Homo sapiens, UniProt P01116+P62937, G13D)
Sequence (P01116 1-169 isoform P01116-2 G13D limits assumed): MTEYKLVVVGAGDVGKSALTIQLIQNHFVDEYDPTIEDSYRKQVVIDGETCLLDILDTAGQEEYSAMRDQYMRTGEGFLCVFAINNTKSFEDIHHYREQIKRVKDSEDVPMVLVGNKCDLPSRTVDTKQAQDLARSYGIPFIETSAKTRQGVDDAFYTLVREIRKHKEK
Sequence (P62937 whole entry): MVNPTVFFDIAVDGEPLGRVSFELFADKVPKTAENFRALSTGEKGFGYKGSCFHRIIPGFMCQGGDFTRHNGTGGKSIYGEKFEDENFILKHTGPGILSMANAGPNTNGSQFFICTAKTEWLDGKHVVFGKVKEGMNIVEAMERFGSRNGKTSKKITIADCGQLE
assay: Ras-Raf disruption / FRET / MOA assay (BRAF RBD)
Type: biochemical
run.conditions: Ras-Raf disruption, with Cyclophilin A; read-out: KRAS G13D FRET data IC50
pIC50: −log10 of the molar value.
measured.metric: pIC50

Below are worked cases with known answers.
>  <compound>
CCn1c(-c2cccnc2[C@H](C)OC)c2c3cc(ccc31)-c1cc(O)cc(c1)C[C@H](NC(=O)[C@H](C(C)C)N(C)C(=O)c1ccc([C@H]3CN3)cc1)C(=O)N1CCC[C@H](N1)C(=O)OCC(C)(C)C2 [Example 145]

>  <observed.measurement>
6.00 to 7.00

$$$$
>  <compound>
CCn1c(-c2cccnc2[C@H](C)OC)c2c3cc(ccc31)-c1cc(O)cc(c1)C[C@H](NC(=O)[C@H](C(C)C)N(C)C(=O)[C@]1(F)CCN(C(=O)[C@@H]3CN3)C1)C(=O)N1CCC[C@H](N1)C(=O)OCC(C)(C)C2 (atropisomer, axis not shown) [Example 184]

>  <observed.measurement>
6.00 to 7.00

$$$$
>  <compound>
CCn1c(-c2cccnc2[C@H](C)OC)c2c3cc(ccc31)-c1csc(n1)C[C@H](NC(=O)[C@H](C(C)C)N(C)C(=O)N(C)CCN(C)C(=O)[C@H]1CN1)C(=O)N1CCC[C@H](N1)C(=O)OCC(C)(C)C2 (atropisomer, axis not shown) [Example 216]

>  <observed.measurement>
6.00 to 7.00

$$$$

Next up:
## Task # returns recorded pIC50 (system: KRAS G13D (Homo sapiens, UniProt P01116+P62937, G13D)) for CCn1c(-c2cnccc2COC)c2c3cc(ccc31)-c1cccc(c1)C[C@H](NC(=O)[C@H](C(C)C)N(C)C(=O)[C@@H]1CCC(N=C=Nc3ccc(OC)cc3)C1)C(=O)N1CCC[C@H](N1)C(=O)OCC(C)(C)C2 (stereo partly shown) [70 A and B]
## Result < 5.00

###

target: KRAS G12D (Homo sapiens, UniProt P01116+P62937, G12D)
Sequence (P01116 1-169 isoform P01116-2 G12D limits assumed, one chain of several): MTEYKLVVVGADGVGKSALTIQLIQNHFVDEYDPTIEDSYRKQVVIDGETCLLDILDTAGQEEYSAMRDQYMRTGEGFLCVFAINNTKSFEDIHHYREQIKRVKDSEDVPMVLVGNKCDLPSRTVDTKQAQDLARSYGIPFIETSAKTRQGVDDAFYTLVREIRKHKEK
assay: Ras-Raf disruption / FRET / MOA assay (BRAF RBD)
Type: biochemical
run.conditions: KRAS G12D FRET data IC50, Ras-Raf disruption, with Cyclophilin A
Reported IC50 is given for each of the following molecules.

Below are worked cases with known answers.
>  <molecule>
CCn1c(-c2cccnc2[C@H](C)OC)c2c3cc(ccc31)-c1cc(O)cc(c1)C[C@H](NC(=O)[C@H](C(C)C)N(C)C(=O)CN(C)C(=O)[C@@H]1CN1CCO)C(=O)N1CCC[C@H](N1)C(=O)OCC(C)(C)C2 (stereo partly drawn)

>  <target>
KRAS G12D (Homo sapiens, UniProt P01116+P62937, G12D)

>  <observed.measurement>
100 to 1000 nM

$$$$
>  <molecule>
CCn1c(-c2cccnc2[C@H](C)OC)c2c3cc(ccc31)-c1csc(n1)C[C@H](NC(=O)[C@H](C1CCCC1)N(C)C(=O)CN(C)C(=O)[C@@H]1N[C@@H]1C1CC1)C(=O)N1CCC[C@H](N1)C(=O)OCC(C)(C)C2

>  <target>
KRAS G12D (Homo sapiens, UniProt P01116+P62937, G12D)

>  <observed.measurement>
1000 to 10000 nM

$$$$
>  <molecule>
CCn1c(-c2cccnc2[C@H](C)OC)c2c3cc(ccc31)-c1cc(O)cc(c1)C[C@H](NC(=O)[C@H](C(C)C)N(C)C(=O)CNC(=O)[C@@H]1CN1)C(=O)N1CCC[C@H](N1)C(=O)OCC(C)(C)C2

>  <target>
KRAS G12D (Homo sapiens, UniProt P01116+P62937, G12D)

>  <observed.measurement>
100 to 1000 nM

$$$$
>  <molecule>
CCn1c(-c2cccnc2[C@H](C)OC)c2c3cc(ccc31)-c1cc(O)cc(c1)C[C@H](NC(=O)[C@H](C(C)C)N(C)C(=O)CN(C)C(=O)[C@@H]1CN1CC1(C)COC1)C(=O)N1CCC[C@H](N1)C(=O)OCC(C)(C)C2 (stereo partly drawn)

>  <target>
KRAS G12D (Homo sapiens, UniProt P01116+P62937, G12D)

>  <observed.measurement>
10 to 100 nM

$$$$

## Task # returns recorded IC50 (system: KRAS G12D (Homo sapiens, UniProt P01116+P62937, G12D)) for `CCn1c(-c2cccnc2[C@H](C)OC)c2c3cc(ccc31)-c1cc(O)cc(c1)C[C@H](NC(=O)[C@H](C(C)C)N(C)C(=O)CN(C)C(=O)[C@H]1N[C@H]1C(C)C)C(=O)N1CCC[C@H](N1)C(=O)OCC(C)(C)C2`
## Result 10 to 100 nM
